All figures here come from PubChem BioAssay (NCI).

- METHOD NOTES: NCI Yeast Anticancer Drug Screen. Data for the mlh1 rad18 strain (AID 175)
- ASSAY CONTEXT: S. cerevisiae mlh1 rad18 strain growth inhibition; at 50.0 µM (retest, dose inferred, filed as 5.0); active compounds read high
Compounds without any hit were thinned out: in the full panel of roughly 79,000, 15% have a hit.
# growth inhibition per record follows

- MOLECULE: "BrC(Br)([P+](c1ccccc1)(c1ccccc1)c1ccccc1)[P+](c1ccccc1)(c1ccccc1)c1ccccc1"
  MEASUREMENT UNITS: "%"
  growth inhibition: 74
- MOLECULE: "COc1cccc2c1C1c3ccccc3Sc3cccc(c31)O2 (configuration not stated)"
  MEASUREMENT UNITS: "%"
  growth inhibition: 1
- MOLECULE: "O=C1C=CC(=O)c2c1cc1ccccc1c2O"
  MEASUREMENT UNITS: "%"
  growth inhibition: 97
- MOLECULE: "O=[N+]([O-])C1=Cc2cc(Cl)ccc2OC1c1cccc2ccccc12 (configuration not stated)"
  MEASUREMENT UNITS: "%"
  growth inhibition: 87
- MOLECULE: "CN(C)CC1CCCCCC(Br)C1=O (configuration not stated)"
  MEASUREMENT UNITS: "%"
  growth inhibition: 96
- MOLECULE: "C=CCOc1ccccc1C(OCC)OCC"
  MEASUREMENT UNITS: "%"
  growth inhibition: 87
- MOLECULE: "O=C(/C=C/c1cccc([N+](=O)[O-])c1)CCl"
  MEASUREMENT UNITS: "%"
  growth inhibition: 98
- MOLECULE: "O=C1CSC(=S)N1Cc1ccccc1Cl"
  MEASUREMENT UNITS: "%"
  growth inhibition: 98
- MOLECULE: "C/C(=C/C(=O)/C=C/c1ccccc1)c1c(C)[nH]c2ccccc12"
  MEASUREMENT UNITS: "%"
  growth inhibition: 16
- MOLECULE: "O=C(NC(OCc1ccccc1)(C(F)(F)F)C(F)(F)F)OCc1ccccc1"
  MEASUREMENT UNITS: "%"
  growth inhibition: 98
- MOLECULE: "CC1CCC2(CC1)NC1=C(CC(C)CC1)C1=C2CC(C)CC1 (configuration not stated)"
  MEASUREMENT UNITS: "%"
  growth inhibition: 89
- MOLECULE: "Cc1cc(NC(=S)SC(C)C)ccc1Br"
  MEASUREMENT UNITS: "%"
  growth inhibition: 99
- MOLECULE: "Cc1ccc(-n2c(CSc3ccc(Cl)cc3)nnc2SCc2nc3ccccc3[nH]2)cc1"
  MEASUREMENT UNITS: "%"
  growth inhibition: -4
- MOLECULE: "CC1(c2ccc(Cl)cc2)OC(=O)C(=Cc2ccc([N+](=O)[O-])s2)C(=O)O1 (configuration not stated)"
  MEASUREMENT UNITS: "%"
  growth inhibition: 82
- MOLECULE: "COc1ccc(C2SC(C)C(=O)N2c2nc(-c3nc(-c4ccc(Cl)cc4)cs3)cs2)cc1 (configuration not stated)"
  MEASUREMENT UNITS: "%"
  growth inhibition: 99
- MOLECULE: "CC(C)C1=C(O)C2=C(C(=O)C1=O)C1(C)CCCC(C)(C)C1C(O)C2OC=O (configuration not stated)"
  MEASUREMENT UNITS: "%"
  growth inhibition: 99
- MOLECULE: "Oc1ccc(CC2CCC(O)CC2)cc1 (configuration not stated)"
  MEASUREMENT UNITS: "%"
  growth inhibition: -78
- MOLECULE: "C=C1C(=O)OC2C1CCC(=C)C1CC(O)C(=C)C12 (configuration not stated)"
  MEASUREMENT UNITS: "%"
  growth inhibition: 70
- MOLECULE: "COc1ccc(NC(=O)CCC(=O)C(C)C(=O)c2ccccc2)cc1 (configuration not stated)"
  MEASUREMENT UNITS: "%"
  growth inhibition: 6
- MOLECULE: "CCCCc1[nH]ccc2c(C)c3nc4ccccc4c3cc12"
  MEASUREMENT UNITS: "%"
  growth inhibition: 95
- MOLECULE: "C/C([O-])=C1\\Cc2ccccc2C1=O.C/C([O-])=C1\\Cc2ccccc2C1=O.CC[O-].CC[O-].[Ti+4]"
  MEASUREMENT UNITS: "%"
  growth inhibition: 20
- MOLECULE: "Cc1nc2c(cnn2-c2ccccc2)c(=O)o1"
  MEASUREMENT UNITS: "%"
  growth inhibition: -108
- MOLECULE: "CN(C)c1ccc(N=Nc2ccc(/C=C3\\CCOC3=O)cc2)cc1"
  MEASUREMENT UNITS: "%"
  growth inhibition: 3
- MOLECULE: "Cc1cc(-c2ccccc2)c(C)c(-c2ccccc2)c1-c1ccccc1"
  MEASUREMENT UNITS: "%"
  growth inhibition: 16
- MOLECULE: "O=C(Nc1ccccc1)C(F)(F)C(F)(F)C(F)(F)F"
  MEASUREMENT UNITS: "%"
  growth inhibition: 28
- MOLECULE: "COc1ccc(N=NN2CCCC2)cc1"
  MEASUREMENT UNITS: "%"
  growth inhibition: 33
- MOLECULE: "CCCCCCCCCCSCCO"
  MEASUREMENT UNITS: "%"
  growth inhibition: 97
- MOLECULE: "CCCCCCCCCCCCCCCC[N+](C)(C)c1ccccc1"
  MEASUREMENT UNITS: "%"
  growth inhibition: 98
- MOLECULE: "O=C(CBr)c1cc(-c2ccc(Cl)cc2)nc2ccccc12"
  MEASUREMENT UNITS: "%"
  growth inhibition: 98
- MOLECULE: "Oc1cc2ccccc2cc1O"
  MEASUREMENT UNITS: "%"
  growth inhibition: 93
- MOLECULE: "Cc1ccc(NC(=O)CCc2nnc(N)n2N)cc1"
  MEASUREMENT UNITS: "%"
  growth inhibition: -1
- MOLECULE: "CCOC(=O)/N=C(\\N)SCc1ccccc1"
  MEASUREMENT UNITS: "%"
  growth inhibition: -2
